# credit: ChEMBL document CHEMBL1157019

assay.details: Inhibition of HIV reverse transcriptase
Set-up: species or system Human immunodeficiency virus
Think of 5 as a floor: if pIC50 stands on it or above, it is label 1; beneath it, label 0.

# compound, group.label
measured = [
    ("C[C@H]1Cn2c(=S)[nH]c3cc(Cl)cc(c32)CN1CC1CC1", "label 1"),
    ("CC(C)=CCN1C[C@@H](C)n2c(=S)[nH]c3cc(Cl)cc(c32)[C@@H]1C (relative stereo)", "label 0"),
]

**Query** Please indicate if the recorded pIC50 for CCCN1Cc2cccc3[nH]c(=O)n(c23)C(C(C)C)C1 (configuration not stated) meets or exceeds 5.
**Result** label 0

**Query** Please indicate if the recorded pIC50 for CCCN1CCn2c(=O)[nH]c3cccc(c32)C1C (configuration not stated) meets or exceeds 5.
**Result** label 0

* * *

assay.details: Inhibition of HIV reverse transcriptase
Parameters: species or system Human immunodeficiency virus
Exercise: state measured pIC50 for each of the compounds provided.
Answers are plain numbers.

Could you report pIC50 for every entry in the following list?
1. CC(C)=CCN1Cc2c(F)ccc3nc(S)n(c23)C[C@@H]1C
2. C=C(C)CN1Cc2cccc3[nH]c(=O)n(c23)C(C)C1 (stereo not given)
3. CC(C)=CCN1[C@@H](C)Cn2c(=O)[nH]c3cc(Cl)cc(c32)[C@@H]1C
4. CC(C)=CCN1Cc2cc(Cl)cc3[nH]c(=S)n(c23)C[C@@H]1C

**Result**
[8.24, 4.49, 5.3, 7.37]

Could you report pIC50 for every entry in the following list?
1. CC(C)=CCN1CCn2c(=O)[nH]c3cccc(c32)C1
2. CC(C)=CCN1CCn2c(=O)[nH]c3cc(Cl)cc(c32)C1C (stereo not given)
3. CC(C)=CCN1CCn2c(=S)[nH]c3cccc(c32)C1C (stereo not given)
4. CC(C)=CCN1CCn2c(=O)[nH]c3cccc(c32)C1C (stereo not given)
5. S=c1[nH]c2cccc3c2n1-c1ccccc1N(CC1CC1)C3
6. C=C(C)CN1Cc2cccc3[nH]c(=O)n(c23)CC1C (stereo not given)
7. C=C(C)CN1Cc2cccc3[nH]c(=O)n(c23)C(C(C)C)C1 (stereo not given)

**Result**
1: 4.9; 2: 6.79; 3: 7.11; 4: 4.92; 5: 5; 6: 4.46; 7: 4.9

Could you report pIC50 for every entry in the following list?
1. C=C(CC)CN1CCn2c(=O)[nH]c3cccc(c32)C1
2. CC(C)=CCN1Cc2c(C=O)ccc3nc(S)n(c23)C[C@@H]1C

**Result**
1. 4.43
2. 6.73

* * *

assay.details: Inhibition of HIV reverse transcriptase
Set-up: species or system Human immunodeficiency virus
Exercise: state measured pIC50 for each of the compounds provided.
Numbers only.

# structure.smiles.string, pIC50
records = [
    ("CC(C)=CCN1Cc2cc(Cl)cc3[nH]c(=O)n(c23)C[C@@H]1C", 6.74),
    ("C#Cc1ccc2nc(O)n3c2c1CN(CC=C(C)C)[C@@H](C)C3", 6.36),
]

Please examine the following record next.
Lookup result for CC(C)=CCN1CCn2c(=S)[nH]c3cc(Cl)cc(c32)C1 ; measured pIC50: 6.79

* * *

assay.details: Inhibition of HIV reverse transcriptase
Set-up: species or system Human immunodeficiency virus
Exercise: state measured pIC50 for each of the compounds provided.

# compound, property, reported.value
records = [
    ("CC(C)=CCN1Cc2cccc3nc(O)n(c23)C[C@@H]1C", "pIC50", 5.48),
    ("CC(C)=CCN1Cc2ccc(Br)c3nc(S)n(c23)C[C@@H]1C", "pIC50", 5.97),
]

Please examine the following record next.
Lookup result for CC(C)=CCN1Cc2cccc3[nH]c(=S)n(c23)C[C@@H]1C (stereo in doubt; 44) ; measured pIC50: 7.01
